target under test: DGKz (Homo sapiens (Human), UniProt Q13574)
Sequence (Q13574 whole entry): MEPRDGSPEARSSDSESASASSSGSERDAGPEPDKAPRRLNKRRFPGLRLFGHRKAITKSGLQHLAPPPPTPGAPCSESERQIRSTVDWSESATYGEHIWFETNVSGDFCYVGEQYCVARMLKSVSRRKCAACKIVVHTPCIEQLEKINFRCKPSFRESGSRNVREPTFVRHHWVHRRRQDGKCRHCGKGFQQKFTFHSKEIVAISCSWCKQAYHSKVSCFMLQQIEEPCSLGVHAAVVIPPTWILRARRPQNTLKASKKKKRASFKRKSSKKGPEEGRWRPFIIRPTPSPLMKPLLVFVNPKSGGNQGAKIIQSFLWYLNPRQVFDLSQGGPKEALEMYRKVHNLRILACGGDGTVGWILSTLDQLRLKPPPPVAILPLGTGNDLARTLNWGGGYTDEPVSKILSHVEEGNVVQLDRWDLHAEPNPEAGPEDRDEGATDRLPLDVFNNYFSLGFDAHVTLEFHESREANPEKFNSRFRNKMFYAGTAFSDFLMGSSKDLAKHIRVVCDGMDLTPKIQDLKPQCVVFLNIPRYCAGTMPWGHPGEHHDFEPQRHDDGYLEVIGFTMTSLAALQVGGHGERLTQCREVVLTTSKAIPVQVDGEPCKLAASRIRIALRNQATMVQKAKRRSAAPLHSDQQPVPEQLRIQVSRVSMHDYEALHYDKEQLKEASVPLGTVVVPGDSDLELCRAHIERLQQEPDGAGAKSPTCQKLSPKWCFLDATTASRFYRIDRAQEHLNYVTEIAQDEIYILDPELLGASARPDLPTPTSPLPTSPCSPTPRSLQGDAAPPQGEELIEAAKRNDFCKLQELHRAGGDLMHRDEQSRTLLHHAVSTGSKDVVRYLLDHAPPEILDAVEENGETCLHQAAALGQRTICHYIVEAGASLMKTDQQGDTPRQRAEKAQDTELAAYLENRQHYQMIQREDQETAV
assay notes: DGK ADP-Glo Kinase Assay (DGKz)
Format: biochemical
study conditions: 5 nM DGKz, 15 uM ATP
Kindly state IC50 for each of the entries shown.

compound: CC[C@H]1CN(C(c2ccc(S(F)(F)(F)(F)F)cc2)C2CC2)[C@H](CC)CN1c1nc(=O)n(C)c2ccc(C#N)nc12 (single isomer, unassigned)
IC50: 100 to 1000 nM

compound: CC[C@H]1CN([C@H](CC)c2ccc(S(F)(F)(F)(F)F)cc2)[C@H](CC)CN1c1nc(=O)n(C)c2ccc(C#N)nc12
IC50: < 100 nM

compound: CC[C@H]1CN([C@@H](CC)c2cccc(C(F)(F)F)c2)[C@H](CC)CN1c1nc2nncn2c2ccc(C#N)nc12 (stereo in doubt)
IC50: < 100 nM

compound: CC[C@@H]1CN(c2nc3nncn3c3ccc(C#N)nc23)[C@@H](C)CN1[C@H](CC)c1ccc(SC(F)(F)F)cc1 (stereo in doubt)
IC50: 100 to 1000 nM

compound: CC[C@@H]1CN(c2nc3nncn3c3ccc(C#N)nc23)[C@@H](CC)CN1C(=O)Nc1ccc(C(F)(F)F)cc1
IC50: 100 to 1000 nM

compound: CN(c1cccc(C#CC2CC2)c1)c1nc(=O)n(C)c2ccc(C#N)nc12
IC50: 100 to 1000 nM

Note: attention shifts to another entry.
# input Request the reported IC50 associated with `Cc1ccc2oc(C3CCN(c4nc(=O)n(C)c5ccc(C#N)nc45)CC3)nc2c1`
# output > 1000 nM

* * *

target under test: DGKz (Homo sapiens (Human), UniProt Q13574)
assay notes: DGK ADP-Glo Kinase Assay (DGKz)
Format: biochemical
study conditions: 5 nM DGKz, 15 uM ATP
assay endpoint: IC50

Provide IC50 for all items below, preserving their order.
1. CC[C@@H]1CN(c2nc3nncn3c3ccc(C#N)nc23)[C@@H](CC)CN1C(=O)Cc1ccc(C(F)(F)F)cc1
2. CC[C@@H]1C[C@@H](Oc2ccc(OC(F)(F)F)cc2)CCN1c1nc(=O)n(C)c2ccc(C#N)nc12 (stereo in doubt)
3. CC[C@H]1CN([C@H](CC)c2ccc(OC)cc2F)[C@H](CC)CN1c1nc2nncn2c2ccc(C#N)nc12 (stereo in doubt)
4. CCC(c1ccc(C23CC(C2)C3)nc1)N1C[C@H](CC)N(c2nc3nncn3c3ccc(C#N)nc23)C[C@H]1CC (stereo partly drawn)
5. CC[C@H]1CN([C@H](CC)c2ccc(OC(F)(F)F)cc2)[C@H](CC)CN1c1nc2nncn2c2ccc(C#N)nc12 (stereo in doubt)

# output
0.1 to 1 µM
< 0.1 µM
0.1 to 1 µM
< 0.1 µM
0.1 to 1 µM

* * *

Observed IC50 for DGKa (Homo sapiens (Human), UniProt P23743), reported per entry below.

Some compounds with known IC50 results, for comparison:
compound: CC[C@H]1CN(C(c2ccc(S(F)(F)(F)(F)F)cc2)c2nc(C3CC3)no2)[C@H](CC)CN1c1nc(=O)n(C)c2ccc(C#N)nc12 (stereo partly drawn)
target under test: DGKa (Homo sapiens (Human), UniProt P23743)
Sequence (P23743 whole entry): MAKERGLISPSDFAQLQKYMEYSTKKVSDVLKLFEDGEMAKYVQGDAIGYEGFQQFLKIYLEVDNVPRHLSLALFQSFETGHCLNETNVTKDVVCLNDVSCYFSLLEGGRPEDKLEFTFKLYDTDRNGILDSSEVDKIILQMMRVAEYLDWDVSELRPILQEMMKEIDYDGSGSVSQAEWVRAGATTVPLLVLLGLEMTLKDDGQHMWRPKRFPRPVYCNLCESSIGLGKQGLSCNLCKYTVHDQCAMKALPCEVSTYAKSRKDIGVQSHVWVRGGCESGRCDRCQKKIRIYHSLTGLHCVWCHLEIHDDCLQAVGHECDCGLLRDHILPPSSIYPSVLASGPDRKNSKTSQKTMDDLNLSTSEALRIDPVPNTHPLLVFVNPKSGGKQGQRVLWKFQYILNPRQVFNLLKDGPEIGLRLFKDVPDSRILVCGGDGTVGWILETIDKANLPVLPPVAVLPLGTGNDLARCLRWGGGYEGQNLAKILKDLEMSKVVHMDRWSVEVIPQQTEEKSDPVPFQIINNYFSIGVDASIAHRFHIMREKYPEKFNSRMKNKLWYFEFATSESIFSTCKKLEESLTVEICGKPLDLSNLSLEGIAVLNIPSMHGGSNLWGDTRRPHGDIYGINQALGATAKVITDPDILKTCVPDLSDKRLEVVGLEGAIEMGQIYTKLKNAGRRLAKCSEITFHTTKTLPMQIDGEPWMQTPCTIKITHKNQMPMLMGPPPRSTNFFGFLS
observed result: < 100 nM
--
compound: CC[C@H]1CN([C@@H](CC)c2ccc(S(F)(F)(F)(F)F)cc2)[C@H](CC)CN1c1nc(=O)n2c3c(cc(C#N)nc13)OCC2 (stereo in doubt)
target under test: DGKa (Homo sapiens (Human), UniProt P23743)
observed result: < 100 nM

Next compound, IC50 to be filled in.
# input Any idea what its IC50 is? The compound is CC[C@H]1CN([C@@H](CC)c2ccc(S(F)(F)(F)(F)F)cc2)[C@H](CC)CN1c1nc2nncn2c2ccc(C#N)nc12 (stereo in doubt)
# output < 100 nM
